Target: LXRβ (Homo sapiens, UniProt P55055)
Construct: Co-transfection expression plasmids, comprising full-length LXRα (pCMX-h LXRα or LXRβ (pCMX-hLXRβ)); expressed in transfected cells; host or cells: CV-1 African green monkey kidney cells, transient transfection with pCMX-hLXRβ
Sequence (P55055 whole entry): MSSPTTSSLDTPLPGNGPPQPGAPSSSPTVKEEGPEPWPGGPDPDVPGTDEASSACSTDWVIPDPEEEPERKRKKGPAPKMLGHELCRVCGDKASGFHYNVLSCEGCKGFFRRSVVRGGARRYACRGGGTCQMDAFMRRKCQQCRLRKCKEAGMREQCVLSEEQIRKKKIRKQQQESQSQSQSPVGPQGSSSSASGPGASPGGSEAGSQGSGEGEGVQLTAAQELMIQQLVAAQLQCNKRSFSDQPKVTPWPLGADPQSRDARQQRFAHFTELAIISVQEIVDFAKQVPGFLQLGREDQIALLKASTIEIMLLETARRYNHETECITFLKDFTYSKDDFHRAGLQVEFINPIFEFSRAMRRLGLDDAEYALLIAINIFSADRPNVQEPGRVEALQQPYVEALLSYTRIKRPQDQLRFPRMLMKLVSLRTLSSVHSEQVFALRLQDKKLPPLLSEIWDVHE
Sequence (P19793 whole entry partner): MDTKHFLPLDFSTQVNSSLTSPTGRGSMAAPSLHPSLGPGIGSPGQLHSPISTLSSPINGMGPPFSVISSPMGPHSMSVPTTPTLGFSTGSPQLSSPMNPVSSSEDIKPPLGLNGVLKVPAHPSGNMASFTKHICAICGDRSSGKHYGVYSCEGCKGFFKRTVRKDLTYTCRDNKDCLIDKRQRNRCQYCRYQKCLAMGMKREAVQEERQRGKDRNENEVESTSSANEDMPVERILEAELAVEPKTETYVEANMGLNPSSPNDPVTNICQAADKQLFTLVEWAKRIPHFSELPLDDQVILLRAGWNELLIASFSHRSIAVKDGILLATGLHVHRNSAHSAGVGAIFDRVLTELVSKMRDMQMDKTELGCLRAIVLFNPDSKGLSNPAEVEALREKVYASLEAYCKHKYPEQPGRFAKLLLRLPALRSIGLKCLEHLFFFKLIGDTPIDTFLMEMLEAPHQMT
Assay: LXR/LXRE co-transfection assay (luciferase reporter) in CV-1 cells, LXRβ
Assay type: cell-based
Settings: CV-1 cells, relative to maximum response of high control N-(3-((4-fluorophenyl)-(naphthalene-2-sulfonyl)amino)propyl)-2,2-dimethylpropionamide, read-out: LXRbeta % EFFICACY
Just a reminder that ties go to rule not met: only Emax strictly below 60% counts as rule met.

compound	experimental.target	category
Cc1nc(-c2ccc(OC(F)F)nc2)c(-c2cc(-c3cc(F)c(CO)c(S(C)(=O)=O)c3)ccc2-n2ccc(C(F)(F)F)n2)o1	LXRβ (Homo sapiens, UniProt P55055)	rule not met
Cc1nc(-c2ccc(OC(F)(F)F)cc2)c(-c2cc(-c3cc(F)c(CO)c(S(C)(=O)=O)c3)ccc2-n2ccc(C3CC3)n2)o1	LXRβ (Homo sapiens, UniProt P55055)	rule met
Cc1nc(-c2ccc3c(c2)OC(F)(F)O3)c(-c2cc(-c3cccc(S(C)(=O)=O)c3)ccc2-c2cc(C(F)(F)C(N)=O)nn2C)o1	LXRβ (Homo sapiens, UniProt P55055)	rule met
Cc1nc(-c2ccc3c(c2)OC(F)(F)O3)c(-c2cc(-c3cc(F)c(CO)c(S(C)(=O)=O)c3)ccc2-c2cc(C(C)C#N)nn2C)o1 (stereo not drawn)	LXRβ (Homo sapiens, UniProt P55055)	rule not met
Cc1nc(-c2ccc(OC(F)(F)F)cc2)c(-c2cc(-c3cc(F)c(CO)c(S(C)(=O)=O)c3)ccc2-c2cc(C(F)(F)F)nn2C)o1	LXRβ (Homo sapiens, UniProt P55055)	rule not met
CS(=O)(=O)c1cc(-c2ccc(-n3ccc(C(F)(F)F)n3)c(-c3nc(C4CC4)oc3-c3ccc(OC(F)(F)F)cc3)c2)cc(F)c1CO	LXRβ (Homo sapiens, UniProt P55055)	rule not met
Cc1nc(-c2cc(-c3cc(F)c(CO)c(S(C)(=O)=O)c3)ccc2-n2ccc(C(F)(F)F)n2)c(-c2ccc(Cl)c(OC(F)F)c2)o1	LXRβ (Homo sapiens, UniProt P55055)	rule not met
Cn1nc(C(F)(F)F)cc1-c1ccc(-c2cc(Cl)c(CO)c(S(C)(=O)=O)c2)cc1-n1nncc1-c1ccc(OC(F)(F)F)cc1	LXRβ (Homo sapiens, UniProt P55055)	rule not met
Cc1nc(-c2ccc3c(c2)OC(F)(F)O3)c(-c2cc(-c3cc(F)c(CO)c(S(C)(=O)=O)c3)ccc2-c2cc(C(F)(F)C(=O)N3CCCC3)nn2C)o1	LXRβ (Homo sapiens, UniProt P55055)	rule not met
Cc1nc(-c2ccc(OC(F)(F)F)cc2)c(-c2cc(-c3cc(F)c(CO)c(S(C)(=O)=O)c3)ccc2-n2ccc(C#N)n2)o1	LXRβ (Homo sapiens, UniProt P55055)	rule not met

Please indicate whether the reported Emax of Cc1nc(-c2ccc(OC(F)(F)F)cc2)c(-c2cc(-c3cc(F)c(CO)c(S(C)(=O)=O)c3)ccc2-n2ccc(C(F)(F)F)n2)o1 is strictly below 60%.
rule not met

Say whether its Emax is strictly beneath 60%. Entry: Cc1nc(-c2ccc3c(c2)OC(F)(F)O3)c(-c2cc(-c3cc(F)c(CO)c(S(C)(=O)=O)c3)ccc2-c2cc(C(N)=O)nn2C)o1
rule met

Given the entry Cc1nc(-c2ccc3c(c2)OC(F)(F)O3)c(-c2cc(-c3cccc(S(C)(=O)=O)c3)ccc2-c2cc(CC(C)(C)O)nn2C)o1 , would its reported Emax be below 60%?
rule met

Strictly below 60% in Emax? Cc1nc(-c2ccc(OC(F)(F)F)cc2)c(-c2cc(-c3cccc(S(C)(=O)=O)c3)ccc2-n2cc(Cl)c(C(F)(F)F)n2)o1
rule met

Below 60% on Emax? Entry Cc1nc(-c2ccc(OC(F)F)cc2)c(-c2cc(-c3cccc(S(C)(=O)=O)c3)ccc2-n2nc(C(F)(F)F)cc2C)o1
rule not met

Hello, I'm reviewing records and need to know if Emax of Cc1nc(-c2ccc(OC(F)(F)F)cc2)c(-c2cc(-c3cccc(S(N)(=O)=O)c3)ccc2-c2cc(C(F)(F)F)nn2C)o1 is below 60%. Could you check?
rule not met

Is the reported Emax for Cc1nc(-c2ccc3c(c2)OC(F)(F)O3)c(-c2cc(-c3cc(F)c(CO)c(S(C)(=O)=O)c3)ccc2-n2nc(C(F)(F)F)cc2C)o1 strictly below 60%?
rule not met

----------
Molecular target: LXRβ (Homo sapiens)
Construct: Co-transfection expression plasmids, comprising full-length LXRα (pCMX-h LXRα or LXRβ (pCMX-hLXRβ))
Assay: LXR/LXRE co-transfection assay (luciferase reporter) in CV-1 cells, LXRβ
Conditions: CV-1 cells transfected with pCMX-hLXRβ and LXREx1-Tk-Luciferase, 20 hours incubation, read-out: LXRbeta agonism EC50
pEC50: −log10 of the molar value.
Everything with pEC50 lower than 7 is No; everything else, including exactly 7, is Yes.

These recorded examples may help you get a feel for the data.
structure.string	experimental.target	category
CC(C)c1nc(-c2ccc(OC(F)(F)F)cc2)c(-c2cc(-c3cc(F)c(CO)c(S(C)(=O)=O)c3)ccc2-n2ccc(C(F)(F)F)n2)o1	LXRβ (Homo sapiens)	Yes
Cc1nc(-c2cc(-c3cccc(S(C)(=O)=O)c3)ccc2-n2ccc(C(C)(C)O)n2)c(-c2ccc(OC(F)(F)F)cc2)o1	LXRβ (Homo sapiens)	No
Cc1nc(-c2cc(-c3cccc(S(C)(=O)=O)c3)ccc2-n2nc(C(F)(F)F)cc2C)c(-c2ccc(OC(F)F)cc2)o1	LXRβ (Homo sapiens)	Yes

Hi team, for Cc1nc(-c2ccc(OC(F)(F)F)cc2)c(-c2cc(-c3cccc(C(C)(C)C#N)c3)ccc2-n2ccc(C(F)(F)F)n2)o1 , is the recorded pEC50 at or above 7?
No

Please indicate if the recorded pEC50 for CS(=O)(=O)c1cccc(-c2ccc(-n3ccc(C(N)=O)n3)c(-c3oc(C4CC4)nc3-c3ccc(OC(F)(F)F)cc3)c2)c1 meets or exceeds 7.
No

Assess whether reported pEC50 for Cc1nc(-c2ccc3c(c2)OC(F)(F)O3)c(-c2cc(-c3cc(F)c(CO)c(S(C)(=O)=O)c3)ccc2-c2cc(CC(C)(C)O)nn2C)o1 sits at 7 or higher.
Yes

// inclusive: pEC50 at least 7? input: Cc1nc(-c2ccc3c(c2)OC(F)(F)O3)c(-c2cc(-c3cccc(S(C)(=O)=O)c3)ccc2-n2nc(C(F)(F)F)cc2C)o1
Yes

Identify whether the reported pEC50 of the following compound is 7 or greater: Cn1nc(C(F)(F)C(C)(C)O)cc1-c1ccc(-c2cc(F)c(CO)c(S(C)(=O)=O)c2)cc1-n1nncc1-c1ccc(OC(F)(F)F)cc1
No

Item Cn1nc(C(F)(F)C(C)(C)O)cc1-c1ccc(-c2cccc(S(C)(=O)=O)c2)cc1-n1nncc1-c1ccc(OC(F)(F)F)cc1 with pEC50 of 7 or above?
No

Does the compound Cc1nc(-c2cc(-c3cccc(S(C)(=O)=O)c3)ccc2-n2cc(Cl)c(C(F)(F)F)n2)c(-c2ccc(OC(F)(F)F)cc2)o1 have recorded pEC50 that is 7 or more?
Yes

Decide: pEC50 of Cc1nc(-c2ccc3c(c2)OC(F)(F)O3)c(-c2cc(-c3cccc(S(C)(=O)=O)c3)ccc2-c2cc(C(=O)NCC3CC3)nn2C)o1 >= 7?
No

Is pEC50 at least 7? Consider Cc1nc(-c2ccc(OC(F)(F)F)cc2)c(-c2cc(-c3cccc(S(C)(=O)=O)c3)ccc2-n2cc(Cl)c(C(C)(C)O)n2)o1
No

Entry Cc1nc(-c2ccc(OC(F)(F)F)cc2)c(-c2cc(-c3ccc(CO)c(S(C)(=O)=O)c3)ccc2-n2nc(C(F)(F)F)cc2C)o1 : is its pEC50 no less than 7?
Yes

Could you tell me if the measured pEC50 of Cc1nc(-c2ccc3c(c2)OC(F)(F)O3)c(-c2cc(-c3cccc(S(C)(=O)=O)c3)ccc2-n2nc(C(F)(F)F)cc2Cl)o1 reaches 7 or more?
Yes

----------
Listing of recorded pEC50 by entry.
Target: LXRβ (Homo sapiens, UniProt P55055)
Construct: Co-transfection expression plasmids, comprising full-length LXRα (pCMX-h LXRα or LXRβ (pCMX-hLXRβ))
Assay: LXR/LXRE co-transfection assay (luciferase reporter) in CV-1 cells, LXRβ
Conditions: CV-1 cells transfected with pCMX-hLXRβ and LXREx1-Tk-Luciferase, 20 hours incubation, read-out: LXRbeta agonism EC50
In plain terms, pEC50 is the concentration in mol/L turned into minus its base-10 logarithm.

Noted for CC(O)C(F)(F)c1cc(-c2ccc(-c3cc(F)c(CO)c(S(C)(=O)=O)c3)cc2-n2nncc2-c2ccc(OC(F)(F)F)cc2)n(C)n1 (stereo not drawn) : its pEC50 reads 6.60

Per the record, Cc1nc(-c2ccc3c(c2)OC(F)(F)O3)c(-c2cc(-c3cccc(S(C)(=O)=O)c3)ccc2-n2ccc(C(N)=O)n2)o1 has pEC50 of 6.50
